Where do the numbers come from? From ChEMBL document CHEMBL1201862.

- test description: viability of uninfected HEp-2 cells – cell-based, HTS, cytotoxicity control for RSV inhibitor project, dose response (AID 2410)
- Assay type: functional
- conditions used: human respiratory syncytial virus
Calls of active or inactive are those of the source. The rule behind the calls is not given here.
test readout: CC50

smi: COc1ccc2c(c1)-c1nc(NC(=O)c3cccs3)sc1CC2
test result: 7.91 µM (active)
//
smi: CN=C(S)NNC(=O)c1ccc(N(C)C)cc1
test result: > 50 µM (active)
//
smi: CCOc1ccc(-n2c(SCc3cc(=O)oc4cc(C)c(C(C)C)cc34)nnc2-c2cccnc2)cc1
test result: 17.5 µM (active)
//
smi: COC(=O)c1ccc(CSc2nc3ccccc3[nH]2)o1
test result: > 50 µM (active)
//
smi: c1coc(CNc2c3c(nc4ncnn24)CCC3)c1
test result: 40.5 µM (active)
